Tested on: A673/TR/shEF
protocol.notes: cell viability (LOESS-normalised, relative to median of negative controls) (log2 ratio); higher = more viable cells (less compound effect), active = hit call of the paper (over 3 MAD below the median)
run.parameters: 0.25 µM; library screen: screen1; EWS-FLI1 expression: low (doxycycline-induced shRNA knockdown); treatment time: 72 h
Screen size: about 3,200 compounds; about 300 (9.4%) showed activity. The full list was thinned out, with actives kept by preference.
Label y when cell viability (log2) < 0.01; otherwise n.

Lookup: Quick check: cell viability (log2) of CCN(CC)CCNC(=O)c1ccc(N)cc1 under 0.01?
Found: n

Lookup: Entry C[C@]12CCC3c4ccc(OC(=O)CCC(=O)O)cc4CCC3C1CCC2=O (some centres undefined) please
Found: n

Lookup: Entry CC1(C)C=Cc2c(c3c(c4c(=O)c(-c5ccc(O)cc5)coc24)OC(C)(C)CC3)O1 please
Found: n

Lookup: Entry CC(C)=CCC[C@@H](C)[C@H]1CC[C@@]2(C)C3=C(CC[C@]12C)[C@@]1(C)CC[C@H](O)C(C)(C)[C@@H]1CC3 please
Found: y

Lookup: Entry CC(C)CCC[C@@H](C)C1CC[C@H]2[C@@H]3CCC4=CC(=O)C=C[C@]4(C)[C@H]3CC[C@]12C (some centres undefined) please
Found: n

Lookup: Entry COC(=O)/C=C/c1cc(O)ccc1O please
Found: n

Lookup: Entry COc1c(O)cc(O)cc1O please
Found: n

Lookup: Entry CC(=O)O[C@H]1CC[C@]2(C)[C@H]3CC=C4[C@@H]5CC(C)(C)CC[C@]5(C(=O)O)CC[C@@]4(C)[C@]3(C)CC[C@H]2C1(C)C please
Found: n

Lookup: Entry NC(=Nc1nc2ccccc2o1)NC(=O)c1sc2ccccc2c1Cl please
Found: y

====

Tested on: A673/TR/shEF
protocol.notes: cell viability (LOESS-normalised, relative to median of negative controls) (log2 ratio); higher = more viable cells (less compound effect), active = hit call of the paper (over 3 MAD below the median)
run.parameters: 2.5 µM; library screen: screen1; EWS-FLI1 expression: low (doxycycline-induced shRNA knockdown); treatment time: 72 h
The whole screen tested about 3,200 compounds, of which about 300 (9.4%) showed activity. This excerpt belongs to a sample that is enriched for actives.
endpoint.name: cell viability (log2)
Keep it simple and answer with nothing but the number.

Lookup: Quick one: cell viability (log2) of C=C1CC/C=C(/C)CC[C@@H]2[C@@H]1CC2(C)C ?
Found: 0.118

Lookup: Entry C=CCCCCCCCCCCCC=CC(O)COC(C)=O (stereo unspecified) please
Found: 0.0541

Lookup: Entry O=P(O)(O)C(O)c1ccc2ccccc2c1 (stereo unspecified) please
Found: 0.0311

Lookup: Entry CC(C)=CCc1c(O)c(C(=O)CC(C)C)c2oc(=O)cc(-c3ccccc3)c2c1O please
Found: 0.0124

Lookup: Entry C[C@]12CC[C@@H](O)C[C@H]1CC[C@@H]1[C@@H]2C(=O)C[C@@]2(C)[C@H]1CC[C@]2(O)C(=O)CO please
Found: 0.0107

Lookup: Entry Oc1cc(O)c2c(c1)O[C@H](c1cc(O)c(O)c(O)c1)[C@H](O)[C@H]2c1c(O)cc(O)c2c1O[C@H](c1cc(O)c(O)c(O)c1)[C@H](O)[C@H]2c1c(O)cc(O)c2c1O[C@H](c1cc(O)c(O)c(O)c1)[C@H](O)C2 please
Found: 0.0716

Lookup: Entry S=c1[nH]nc(COc2ccc(Cl)cc2Cl)n1-c1ccccc1 please
Found: 0.0872

Lookup: Entry CC(=O)OC1CC[C@@]2(C)C(CC[C@H]3[C@@H]4CC=C(C(C)=O)[C@@]4(C)C(=O)C[C@@H]32)C1 (stereo partly specified) please
Found: 0.0915

Lookup: Entry COc1cc(OC)c(C2NC(=S)NC(C)=C2C(=O)Nc2cccc(Cl)c2)cc1OC (stereo unspecified) please
Found: 0.0905

Lookup: Entry COc1c(O)cc(O)cc1O please
Found: 0.0739

Lookup: Entry COc1ccc(C(=O)C=Cc2ccccc2)cc1 please
Found: 0.0356

Lookup: Entry COCCN1C(=O)/C(=C\c2ccc(-c3ccc(Br)cc3)o2)SC1=S please
Found: 0.0615

Lookup: Entry CC(=O)Oc1ccc(O)cc1 please
Found: 0.00436

Lookup: Entry COC(=O)C[C@H]1C(C)(C)[C@@H](OC(C)=O)[C@@H]2CC3=C4CC(=O)O[C@@H](c5ccoc5)[C@]4(C)CC[C@@H]3[C@@]1(C)C2=O please
Found: 0.108

Lookup: Entry CC(C)CC1NC(=O)CNC1=O (stereo unspecified) please
Found: 0.0262

Lookup: Entry C[C@@H]1CC[C@@]23CCC4(C)[C@@](C=CC5[C@@]6(C)CC[C@H](O)C(C)(C)C6CC[C@]54C)(OC2=O)C3[C@H]1C (stereo partly specified) please
Found: -0.0285

Lookup: Entry COc1ccc(CN2CCN(Cc3cccc([N+](=O)[O-])c3)CC2)cc1OC please
Found: 0.138

Lookup: Entry NCCNS(=O)(=O)c1cccc2cnccc12 please
Found: 0.0153

Lookup: Entry CN(C)CCC=C1c2ccccc2CCc2ccccc21 please
Found: 0.0763

Lookup: Entry Cc1ccc(CN2CCN(Cc3c[nH]c4ccccc34)CC2)cc1 please
Found: 0.0231

Lookup: Entry NS(=O)(=O)c1ccc(-c2ccc(/C=C3/SC(=S)N(C4CCCCC4)C3=O)o2)cc1 please
Found: -0.0331
